SUBJECT OF TEST: Human immunodeficiency virus type 1 reverse transcriptase (Human immunodeficiency virus 1)
ASSAY PROTOCOL: Inhibition of HIV-1 reverse transcriptase polymerization using wild type HIV-1-RT enzyme
For each entry below, report its IC50 value.
Could you give me the number in µM? Just the number is fine.

The molecule listed as O=C(OCCc1ccc(O)c(O)c1)c1cc(O)c(O)c(O)c1 shows IC50 equal to 10.7

The molecule listed as O=C(OC1COc2cc(O)cc(O)c2C1)c1ccc(O)c(O)c1 (stereo unspecified) shows IC50 equal to 37.2

The molecule listed as O=C(OCCc1ccc(O)cc1)c1cc(O)c(O)c(O)c1 shows IC50 equal to 7.9

The molecule listed as O=C(OC1COc2cccc(O)c2C1)c1cc(O)c(O)c(O)c1 (stereo unspecified) shows IC50 equal to 45.5

The molecule listed as O=C(OC1COc2cc(O)cc(O)c2C1)c1cc(O)cc(O)c1 (stereo unspecified) shows IC50 equal to 96.3

The molecule listed as O=C(OC1COc2cc(O)cc(O)c2C1)c1cc(O)c(O)c(O)c1 (stereo unspecified) shows IC50 equal to 3.8

The molecule listed as O=C(OCCc1ccccc1)c1cc(O)c(O)c(O)c1 shows IC50 equal to 72.9

The molecule listed as O=C(OC1COc2cc(O)ccc2C1)c1cc(O)c(O)c(O)c1 (stereo unspecified) shows IC50 equal to 36.3

The molecule listed as COc1cc(OC)c2c(c1)OCC(OC(=O)c1cc(O)c(O)c(O)c1)C2 (stereo unspecified) shows IC50 equal to 72.8

FYI, the data here is from ChEMBL document CHEMBL1135056.
